The entries below are paired with their reported log10(IC50).
# TESTED_TARGET: human TRPV1 (Homo sapiens)
# Construct: expressed in transfected cells; host or cells: HEK293 (hTRPV1/HEK293), zeocin selection
# Sequence (Q8NER1 whole entry): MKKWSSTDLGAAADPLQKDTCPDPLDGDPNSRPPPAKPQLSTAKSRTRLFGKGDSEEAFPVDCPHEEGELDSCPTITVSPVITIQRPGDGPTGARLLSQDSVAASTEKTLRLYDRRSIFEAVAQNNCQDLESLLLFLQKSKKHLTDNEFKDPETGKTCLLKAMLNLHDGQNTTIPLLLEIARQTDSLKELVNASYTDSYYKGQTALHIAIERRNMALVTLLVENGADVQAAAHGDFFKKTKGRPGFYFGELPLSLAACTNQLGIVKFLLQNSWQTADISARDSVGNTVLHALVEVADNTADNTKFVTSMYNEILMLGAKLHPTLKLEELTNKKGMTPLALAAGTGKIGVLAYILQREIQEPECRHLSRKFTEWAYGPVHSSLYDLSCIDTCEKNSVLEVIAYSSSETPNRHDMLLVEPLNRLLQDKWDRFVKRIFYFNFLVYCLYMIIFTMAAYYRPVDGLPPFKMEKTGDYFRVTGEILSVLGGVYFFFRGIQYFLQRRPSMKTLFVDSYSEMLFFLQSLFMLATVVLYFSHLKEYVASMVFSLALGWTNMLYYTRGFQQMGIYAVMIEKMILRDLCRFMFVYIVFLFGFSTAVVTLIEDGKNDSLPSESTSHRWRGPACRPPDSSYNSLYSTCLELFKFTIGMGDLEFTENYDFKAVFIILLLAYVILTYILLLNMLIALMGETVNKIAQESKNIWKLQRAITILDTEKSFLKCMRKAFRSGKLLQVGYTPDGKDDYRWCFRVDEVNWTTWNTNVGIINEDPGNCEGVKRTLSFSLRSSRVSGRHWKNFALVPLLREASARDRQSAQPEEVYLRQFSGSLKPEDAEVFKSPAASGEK
# PROTOCOL_DETAILS: Functional assay: block of capsaicin-induced Ca2+ influx, human assay (hTRPV1/HEK293, FLIPR)
# Assay type: cell-based
# RUN_PARAMETERS: hTRPV1/HEK293 cells, 150 nM capsaicin challenge, Fluo-3 fluorescence; mean; > value = solubility limit in assay medium
// stored as log10 of IC50 expressed in nM

Cc1noc(C)c1Nc1nc2c(Nc3ccc(C(C)(C)C)cc3)ncnc2s1 = 2.35

# query: log10(IC50) | item Cc1nc(Nc2ccc(C(C)(C)C)cc2)c2nc(Nc3c(C)cccc3C)sc2n1 | system: human TRPV1 (Homo sapiens) 1.08

Please answer likewise for CS(=O)(=O)c1ccc(Nc2nc(N3CCCCC3)nc3sc(Nc4c(Cl)cccc4Cl)nc23)cc1 2.17

Field entry: Cc1nc(Nc2ccc(N(C)S(C)(=O)=O)cc2)c2nc(Nc3c(Cl)cccc3Cl)sc2n1 3.09

Just for reference, patent US20080004253A1 is where these values come from.
